Data credit: patent US20180066015A1

# assay_system: Recombinant human hepsin (4776-SE-010, R&D Systems), activated (human, UniProt P05981)
# experiment_summary: fluorogenic inhibition assay
*: point of attachment. kbt = C-terminal ketobenzothiazole, c1ccc2sc(*)nc2c1; Kbt = ketobenzothiazole, c1ccc2sc(*)nc2c1; Fmoc = O=C(OCC1c2ccccc2-c2ccccc21)*
Mark YES only when Ki stays strictly below 200 nM. Values equal to the cut-off are NO.

binder: Ac-KRLR-{Kbt-Benzyl‑3‑COOMe} [Ac-KRLR(SEQ ID NO: 8)-kbt-Benzyl-3-COOMe]
label_value: YES
//
binder: Fmoc-His-Arg-kbt [Fmoc-HR-kbt]
label_value: NO
//
binder: Ac-KRLR-Kbt (SMILES CC(=O)N[C@@H](CCCCN)C(=O)N[C@@H](CCCNC(=N)N)C(=O)N[C@@H](CC(C)C)C(=O)N[C@@H](CCCNC(=N)N)C(=O)c1nc2ccccc2s1) [Ac-KRLR(SEQ ID NO: 8)-Kbt]
label_value: YES
//
binder: Fmoc-Asp-Arg-kbt [Fmoc-DR-kbt]
label_value: NO
//
binder: Fmoc-Leu-Arg-kbt [Fmoc-LR-kbt]
label_value: YES
//
binder: Fmoc-Ala-Arg-kbt [Fmoc-AR-kbt]
label_value: NO
